System: CD3+ BAL cells
Assay: Intracellular cytokine expression by CD3+ T cells following in vivo peptide treatment
Design: species or system BALB/c mice
Details: day 5 pi
QUANTITY_NAME: Total IC cytokine Expressing CD3^+ BAL cells (×10^3) ± SEM: IFNγ

Examples from the recorded data:
[[record]]
sequence_record = "TCWAICKRIPNK [RT33]"
assay_system = "CD3+ BAL cells"
reported_value = "8.0 ± 1.0 ×10^3"

[[record]]
sequence_record = "NKKPGKKTTTKP [RT34]"
assay_system = "CD3+ BAL cells"
reported_value = "18 ± 2.6 ×10^3"

[[record]]
sequence_record = "TCWAIACKRIPNK [Δ + 1]"
assay_system = "CD3+ BAL cells"
reported_value = "17 ± 5.3 ×10^3"

[[record]]
sequence_record = "TCAAACKRIPNKK [EYp1, 13-mer G glycoprotein peptide variant of RT33 with CAAAC motif]"
assay_system = "CD3+ BAL cells"
reported_value = "26 ± 5.4 ×10^3"


Turning now to a further record.
**Query** Which Total IC cytokine Expressing CD3^+ BAL cells (×10^3) ± SEM: IFNγ value belongs to TCWACKRIPNK (TCWAIACKRIPNK) [Δ − 1] ?
**Result** 10 ± 1.6 ×10^3

====

Tested on: RSV
Assay: RSV plaque reduction assay on Vero cells (Example 1)
Format: cell-based, RSV/A2
Conditions: 1 μM
plaque inhibition (%) of 6% or higher: MET. Under 6%: NOT MET.

**Query** Is plaque inhibition (%) for TCWAIACKRIPNK [Δ + 1] at or above 6%?
**Result** MET

**Query** Cool, now TCWACKRIPNK (TCWAIACKRIPNK) [Δ − 1]
**Result** NOT MET

**Query** Record: VPCSICSNNPTC [RT32]
**Result** NOT MET

**Query** Please do the same for TCWAICKRIPNK [RT33] as well.
**Result** MET

====

System: CD3+ BAL cells
Assay: Intracellular cytokine expression by CD3+ T cells following in vivo peptide treatment
Set-up: species or system BALB/c mice
Conditions: day 3 pi
Known Total IC cytokine Expressing CD3^+ BAL cells (×10^3) ± SEM: TNFα of a selection of sequences

Take a look at these entries with their results.
[[record]]
sequence_record = "NKKPGKKTTTKP [RT34]"
reported_value = "57 ± 12 ×10^3"

[[record]]
sequence_record = "TCWAICKRIPNK [RT33]"
reported_value = "28 ± 7.0 ×10^3"

[[record]]
sequence_record = "TCWACKRIPNK (TCWAIACKRIPNK) [Δ − 1]"
reported_value = "55 ± 17 ×10^3"

[[record]]
sequence_record = "TCWAIACKRIPNK [Δ + 1]"
reported_value = "19 ± 2.5 ×10^3"


// next item, Total IC cytokine Expressing CD3^+ BAL cells (×10^3) ± SEM: TNFα requested
**Query** Given the entry TCAAACKRIPNKK [EYp1, 13-mer G glycoprotein peptide variant of RT33 with CAAAC motif] , report its measured Total IC cytokine Expressing CD3^+ BAL cells (×10^3) ± SEM: TNFα.
**Result** 36 ± 8.1 ×10^3

// data source = patent US8173131B2
